tested on: K562; experiment: Cytotoxicity against K562 leukemia cells in vitro, expressed as the minimal concentration necessary to inhibit incorporation of [3H]thymidine by 50%; format: functional, cell-based; conditions: Homo sapiens, K562, 48 h
value-kind: log10 IC50 (log10 of the value in nM)

# molecule, value-kind, number
rows = [
    ("CCCC(=O)Nc1cc(/C=C/C(=O)Nc2ccc(N(CCCl)CCCl)cc2)n(C)c1", "log10 IC50", 3.08),
    ("CCCONc1cc(C(=O)Nc2cc(C(=O)Nc3ccc(N(CCCl)CCCl)cc3)n(C)c2)n(C)c1", "log10 IC50", 2.40),
    ("CCCONc1cc(C(=O)Nc2ccc(N(CCCl)CCCl)cc2)n(C)c1", "log10 IC50", 2.98),
    ("O=C(O)CCCc1ccc(N(CCCl)CCCl)cc1 [CHLORAMBUCIL]", "log10 IC50", 4.54),
    ("CCCC(=O)Nc1cc(/C=C/C(=O)Nc2cc(C(=O)Nc3ccc(N(CCCl)CCCl)cc3)n(C)c2)n(C)c1", "log10 IC50", 2.32),
    ("CCCONc1cc(C(=O)Nc2cc(C(=O)Nc3cc(C(=O)Nc4ccc(N(CCCl)CCCl)cc4)n(C)c3)n(C)c2)n(C)c1", "log10 IC50", 1.48),
]
